- EXPERIMENTAL_PROTOCOL: Capsule perfume leakage in liquid fabric enhancer (LFE), headspace SPME GC/MS
- Assay type: physicochemical
- COND: PRM of Perfume 1 out of Example 6-1 capsules (w/ second shell component); LFE Composition 1
MEASUREMENT_KIND: Leakage (as %) after 1 week at 35° C.
Answer with a number only, understood to be in %.

Worked examples follow.
[
  {
    "COMPOUND": "CC12CCC(CC1)C(C)(C)O2 [Eucalyptol]",
    "MEASUREMENT_UNITS": "%",
    "Leakage (as %) after 1 week at 35° C.": 8
  },
  {
    "COMPOUND": "CC1=CC(C)C(C=O)CC1 (stereo not shown)",
    "MEASUREMENT_UNITS": "%",
    "Leakage (as %) after 1 week at 35° C.": 8
  },
  {
    "COMPOUND": "CCC(C)(O)CCCC(C)C (stereo not shown) [Tetrahydro linalool]",
    "MEASUREMENT_UNITS": "%",
    "Leakage (as %) after 1 week at 35° C.": 8
  }
]

Let's switch to this compound now.
Prompt: Report Leakage (as %) after 1 week at 35° C., nothing else, for this compound: CCOC(=O)C(C)CC (stereo not shown) [Ethyl 2-methyl butyrate]
Response: 6
